I'd be grateful if you could share measured inhibition for these entries.
- experimental protocol: 384-well plate pilot, post-Golgi transport modulator project, inhibition of yeast transport mutant growth (AID 636); also: test concentration not given here
- test settings: absorbance 615 nm, about 18 h, hits give high values
Give bare numbers, in %.

Below, each entry is followed by its recorded inhibition result.
O=C(c1ccco1)N1CCN(c2nc(C(F)(F)F)nc3c2nnn3Cc2ccccc2)CC1 | -9.45
COc1ccc(C(=O)CN2C(=O)NC3(CCCc4ccccc43)C2=O)cc1OC (configuration not stated) | -1.87
O=C(NC1=NCCS1)c1nc(-c2ccccc2)n(-c2ccccc2)n1 | -3.73

Okay, here is my list. What is inhibition for each of these?
1. O=C(COc1ccc2c(c1)OCO2)NC12CC3CC(CC(C3)C1)C2
2. CCOC(=O)c1cc2sc(C)cc2n1CC(=O)NCc1ccc(F)cc1
3. CCCN(CCC)S(=O)(=O)c1ccc(C(=O)O)cc1
4. Cc1ccc(-c2nnnn2CS(=O)(=O)c2ccccc2)cc1
5. COc1nc(C)ccc1-c1noc(-c2ccncc2)n1

Response:
1: -5.07; 2: -6.32; 3: -0.52; 4: -2.08; 5: -8.22

Value source: PubChem BioAssay
